[
  {
    "CPD SMILES": "Cn1cc(-c2ccnc(Nc3cccc(CCN4CCOCC4)c3)n2)c(-c2ccc(NC(=O)NC3CC3)cc2)n1",
    "melting point": "143 to 145 °C"
  },
  {
    "CPD SMILES": "CN(C)C(=O)Nc1ccc(-c2nn(C)cc2-c2ccnc(Nc3cccc(CCN4CCOCC4)c3)n2)cc1",
    "melting point": "132 to 134 °C"
  },
  {
    "CPD SMILES": "CCNC(=O)Nc1ccc(-c2nn(C)cc2-c2ccnc(Nc3cccc(CCN4CCOCC4)c3)n2)cc1",
    "melting point": "139 to 141 °C"
  },
  {
    "CPD SMILES": "Cn1ncc(-c2ccnc(Nc3cccc(CCN4CCOCC4)c3)n2)c1-c1ccc(NC(=O)N2CCCC2)cc1",
    "melting point": "228 to 230 °C"
  },
  {
    "CPD SMILES": "O=C(Nc1ccc(-c2nn(CCO)cc2-c2ccnc(Nc3cccc(F)c3)n2)cc1)N1CCCC1",
    "melting point": "185 to 186 °C"
  },
  {
    "CPD SMILES": "O=C(Nc1ccc(-c2nn(CCN3CCOCC3)cc2-c2ccnc(Nc3cccc(F)c3)n2)cc1)N1CCCC1",
    "melting point": "167 to 168 °C"
  }
]
